Readout type: melting point

Look over these answered cases.
Lookup: Need melting point, item c1ccc2cc(CN3CCN(CC4ON=C5c6cc7c(cc6OCC54)NCCO7)CC3)ccc2c1 (stereo not drawn) [Compound 92]
Found: 85.3 to 103.9 °C

Lookup: // returns reported melting point for input C/C(=C\c1ccccc1)CN1CCN(CC2ON=C3c4ccc(NCc5ccccc5)cc4OCC32)CC1 (stereo not drawn) [Compound 2]
Found: 108.9 to 114.7 °C

Give melting point for each of the items listed below.
1. CC(=Cc1ccccc1)CN1CCN(CC2ON=C3c4ccc(NC(=O)Nc5cccc(F)c5)cc4OCC32)CC1 (stereo not drawn) [Compound 65]
2. C/C(=C\c1cccc(F)c1)CN1CCN(CC2ON=C3c4cc5c(cc4OCC32)NCCO5)CC1 (stereo not drawn) [Compound 89]
3. CC(=Cc1ccc(F)cc1)CN1CCN(CC2ON=C3c4ccc(N5CCOCC5)cc4OCC32)CC1 (stereo not drawn) [Compound 84]
4. COc1cc2c(cc1NCCN(C)C)OCC1C2=NOC1CN1CCN(C/C(C)=C/c2ccccc2)CC1 (stereo not drawn) [Compound 9]
5. COc1cc2c(cc1N1CCOCC1)OCC1C2=NOC1CN1CCN(CC(C)=Cc2ccccc2)CC1 (stereo not drawn) [Compound 82]
6. CC(=Cc1ccc(F)cc1)CN1CCN(CC2ON=C3c4ccc(NCCN5CCCC5)cc4OCC32)CC1 (stereo not drawn) [Compound 28]

Found:
1: 186.8 to 188.5 °C; 2: 145.4 to 153.1 °C; 3: 179.2 to 188.8 °C; 4: 154.5 to 157.9 °C; 5: 143.5 to 145.9 °C; 6: 108.3 to 121.8 °C

* * *

Target: hα2A receptor (Homo sapiens)
Construct: expressed in transfected cells; host or cells: CHO cells
Sequence (P08913 whole entry): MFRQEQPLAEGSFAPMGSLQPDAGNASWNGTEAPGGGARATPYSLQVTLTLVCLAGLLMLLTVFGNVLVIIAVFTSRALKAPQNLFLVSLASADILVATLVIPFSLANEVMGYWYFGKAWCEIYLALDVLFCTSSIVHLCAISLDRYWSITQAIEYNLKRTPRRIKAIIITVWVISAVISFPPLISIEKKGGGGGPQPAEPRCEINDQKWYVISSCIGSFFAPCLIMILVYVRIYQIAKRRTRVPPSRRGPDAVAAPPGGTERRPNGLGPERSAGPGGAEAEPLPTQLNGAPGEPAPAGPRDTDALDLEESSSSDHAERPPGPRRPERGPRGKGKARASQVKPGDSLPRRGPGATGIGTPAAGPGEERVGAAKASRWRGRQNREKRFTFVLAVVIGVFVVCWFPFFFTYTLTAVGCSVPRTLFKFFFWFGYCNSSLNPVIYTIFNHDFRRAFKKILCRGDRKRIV
Experiment: Radioligand binding experiment for α2A-adrenergic receptor ([3H]-raulwolscine)
Settings: CHO cell membranes with human α2A receptor, [3H]raulwolscine 1 nM; read-out: pIC50 α2A (converted)
Readout type: IC50 (nM)
One number for each entry, in nM.

Each of the following entries comes with a recorded value; kindly state IC50 for each.
1. CC(=Cc1ccc(F)cc1)CN1CCN(CC2ON=C3c4ccc(N5CCN(c6ccccc6)CC5)cc4OCC32)CC1 (stereo not shown)
2. CCC(CC)Nc1cc2c(cc1OC)C1=NOC(CN3CCN(CC(C)=Cc4ccc(F)cc4)CC3)C1CO2 (stereo not shown)
3. C/C(=C\c1ccccc1)CN1CCN(CC2ON=C3c4cc5c(cc4OCC32)N(C)CCO5)CC1 (stereo not shown)

Found:
[251, 126, 15.8]

Could you tell me IC50 for each of these compounds? They are listed below.
1. COc1cc2c(cc1N1CCN(C)CC1)OCC1C2=NOC1CN1CCN(CC(C)=Cc2cccc(F)c2)CC1 (stereo not shown)
2. CC(=Cc1ccccc1)CN1CCN(CC2ON=C3c4ccc(NC(=O)c5ccccc5)cc4OCC32)CC1 (stereo not shown)

Found:
1. 3.98
2. 5.01

Go through the items and report each one's IC50.
1. COc1cc2c(cc1N1CCN(C)CC1)OCC1C2=NOC1CN1CCN(CC(C)=Cc2ccccc2)CC1 (stereo not shown)
2. COc1cc2c(cc1N)OCC1C2=NOC1CN1CCN(C/C(C)=C/c2ccccc2)CC1 (stereo not shown)

Found:
1.58
5.01

* * *

Target: hα2A receptor (Homo sapiens)
Construct: expressed in transfected cells; host or cells: CHO cells
Experiment: Radioligand binding experiment for α2A-adrenergic receptor ([3H]-raulwolscine)
Details: CHO cell membranes with human α2A receptor, [3H]raulwolscine 1 nM; read-out: pIC50 α2A (converted)
Rule: IC50 below 40 nM gives Fulfilled. Equal to or above 40 nM gives Not fulfilled.

Some solved entries appear below for comparison.
Lookup: Identify whether the molecule CC(=Cc1ccccc1)CN1CCN(CC2ON=C3c4ccc(NC(=O)C5CC5)cc4OCC32)CC1 (stereo not drawn) [Compound 51] records IC50 below 40 nM.
Found: Fulfilled

Lookup: Given the entry CCC(C)Nc1cc2c(cc1OC)C1=NOC(CN3CCN(CC(C)=Cc4ccc(F)cc4)CC3)C1CO2 (stereo not drawn) [Compound 99] , would its reported IC50 be below 40 nM?
Found: Not fulfilled

Lookup: Here's an entry: CCOC(=O)CNC(=O)Nc1ccc2c(c1)OCC1C2=NOC1CN1CCN(CC(C)=Cc2ccccc2)CC1 (stereo not drawn) [Compound 63] . Is its IC50 below 40 nM?
Found: Fulfilled

Lookup: Field: below-cutoff. Rule: recorded IC50 strictly less than 40 nM. Subject: COc1cc2c(cc1N(C)CCO)OCC1C2=NOC1CN1CCN(CC(C)=Cc2ccc(F)cc2)CC1 (stereo not drawn) [Compound 39]
Found: Not fulfilled

# next molecule below
Lookup: Lab note: IC50 threshold 40 nM. Does this molecule come in strictly under it? C/C(=C\c1ccc(F)cc1)CN1CCN(CC2ON=C3c4ccc(NS(=O)(=O)c5ccc(C)cc5)cc4OCC32)CC1 (stereo not drawn) [Compound 3]
Found: Not fulfilled
